Assay Procedure: Plasma and urine pharmacokinetics, noncompartmental analysis
Format: in vivo, human
Condition Notes: human, plasma, po, oral administration; read-out: Mean half-life (T1/2)
Readout Type: half-life

{"Molecule Smiles": "Cc1[nH]ncc1-c1cc2nc([C@@H]3CC4CCN3CC4)[nH]c(=O)c2s1", "Reported Value": "4.58 to 6.53 h"}

====

Assay Procedure: Plasma and urine pharmacokinetics, noncompartmental analysis
Assay type: in vivo, human
Condition Notes: human, plasma, po, 50 mg, oral administration of 50 mg; read-out: Terminal half-life (converted)
Readout Type: half-life

{"Molecule Smiles": "Cc1[nH]ncc1-c1cc2nc([C@@H]3CC4CCN3CC4)[nH]c(=O)c2s1", "Readout Type": "half-life", "Reported Value": "~300 min"}
